Data provenance is paper PMC5508670.

systemTested: calpain-I (Sus scrofa)
Construct: purchased CalBiochem
procedureSummary: FRET-based calpain-I inhibition assay in the presence and absence of 10 mM DTT
Type: biochemical, porcine
reportedConditions: presence of 10 mM DTT (reduced sulfhydryl form); read-out: IC50, Sulfhydryl
Protocol: The inhibitory properties of a series of oxidised and reduced α-mercaptoacrylic acid derivatives towards calpain-I (Fig. 4) were assessed in a FRET-based assay in the presence and absence of 10 mM dithiothreitol (DTT).[24],[25] […] None of the compounds had significant fluorescence at this wavelength and correction for this was unnecessary. […] In each assay run, the effect of DMSO alone over the concentration used was also measured. […]
recordedMetric: IC50 (nM)

O=C(O)/C(S)=C/c1ccc(F)cc1    50000
O=C(O)/C(S)=C/c1c[nH]c2ccc(Cl)cc12    1500

A = O=C(O)/C(S)=C/c1ccccc1F
B = O=C(O)/C(S)=C/c1c[nH]c2cc(Cl)ccc12
Record comparison, field IC50: mark the lower of A and B . Answer format: the label of the selected item.
B
(B: 1000 nM, A: 50000 nM)

P = O=C(O)/C(S)=C/c1ccccc1Br
Q = O=C(O)/C(S)=C/c1c[nH]c2cc(Br)ccc12
R = O=C(O)/C(S)=C/c1c[nH]c2c(I)cccc12
S = O=C(O)/C(S)=C/c1c[nH]c2c(Cl)cccc12
Hey, quick one: sort these by IC50, largest value first please. Please, when replying, give the labels in the order that was requested.
P, S, R, Q
(P: 50000 nM, S: 4000 nM, R: 2000 nM, Q: 500 nM)

1 = O=C(O)/C(S)=C/c1cccc(F)c1
2 = O=C(O)/C(S)=C/c1c[nH]c2ccc(Br)cc12
3 = O=C(O)/C(S)=C/c1cccc(I)c1
Hey, quick one: sort these by IC50, largest value first please. Please, when replying, give the labels in the order that was requested.
1, 3, 2

1 = O=C(O)/C(S)=C/c1ccccc1Cl
2 = O=C(O)/C(S)=C/c1c[nH]c2cc(I)ccc12
Record comparison, field IC50: mark the lower of 1 and 2 . Answer format: the label of the selected item.
2

====

systemTested: calpain-I (Sus scrofa, UniProt P35750)
Construct: purchased CalBiochem
Sequence (P35750 1-714): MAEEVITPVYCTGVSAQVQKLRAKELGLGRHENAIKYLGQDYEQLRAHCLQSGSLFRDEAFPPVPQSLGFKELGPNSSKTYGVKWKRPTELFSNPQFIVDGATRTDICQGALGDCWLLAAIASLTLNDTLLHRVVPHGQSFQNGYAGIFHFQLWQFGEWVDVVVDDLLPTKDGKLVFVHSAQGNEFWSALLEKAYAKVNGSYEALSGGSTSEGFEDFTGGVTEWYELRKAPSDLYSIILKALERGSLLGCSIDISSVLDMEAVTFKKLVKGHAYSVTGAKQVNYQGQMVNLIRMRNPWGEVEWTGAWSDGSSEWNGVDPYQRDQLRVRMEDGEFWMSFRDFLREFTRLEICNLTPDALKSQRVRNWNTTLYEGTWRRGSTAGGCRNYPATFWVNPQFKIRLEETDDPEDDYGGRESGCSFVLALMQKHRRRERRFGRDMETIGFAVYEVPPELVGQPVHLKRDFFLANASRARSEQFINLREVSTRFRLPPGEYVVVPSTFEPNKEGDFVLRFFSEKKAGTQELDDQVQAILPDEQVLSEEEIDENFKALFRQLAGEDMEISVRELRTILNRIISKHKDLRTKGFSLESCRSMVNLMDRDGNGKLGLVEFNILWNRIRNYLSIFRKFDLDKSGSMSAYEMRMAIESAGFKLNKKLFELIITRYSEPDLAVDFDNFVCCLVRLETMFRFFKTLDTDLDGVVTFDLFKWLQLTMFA
Sequence (P04574 1-266): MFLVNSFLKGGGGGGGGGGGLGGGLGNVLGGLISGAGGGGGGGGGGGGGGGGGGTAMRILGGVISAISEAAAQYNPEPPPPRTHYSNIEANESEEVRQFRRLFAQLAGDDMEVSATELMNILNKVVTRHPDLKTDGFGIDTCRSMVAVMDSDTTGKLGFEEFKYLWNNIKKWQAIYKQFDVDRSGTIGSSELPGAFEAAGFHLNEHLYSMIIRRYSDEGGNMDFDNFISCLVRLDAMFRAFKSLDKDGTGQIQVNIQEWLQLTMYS
procedureSummary: FRET-based calpain-I inhibition assay in the presence and absence of 10 mM DTT
Format: biochemical, porcine
reportedConditions: thioethers, no DTT; read-out: IC50 (No DTT)
recordedMetric: IC50 (µM)

P = O=C(O)/C(=C/c1ccc(Br)cc1)CS/C(=C\c1ccc(Br)cc1)C(=O)O
Q = O=C(O)/C(=C/c1cccc(Cl)c1)CS/C(=C\c1c[nH]c2ccc(Br)cc12)C(=O)O
For the two items P and Q , which reports the higher IC50 value? Answer format: the label of the selected item.
P
(P: 10 µM, Q: 2 µM)

====

systemTested: calpain-I (Sus scrofa)
Construct: purchased CalBiochem
Sequence (P35750 1-714): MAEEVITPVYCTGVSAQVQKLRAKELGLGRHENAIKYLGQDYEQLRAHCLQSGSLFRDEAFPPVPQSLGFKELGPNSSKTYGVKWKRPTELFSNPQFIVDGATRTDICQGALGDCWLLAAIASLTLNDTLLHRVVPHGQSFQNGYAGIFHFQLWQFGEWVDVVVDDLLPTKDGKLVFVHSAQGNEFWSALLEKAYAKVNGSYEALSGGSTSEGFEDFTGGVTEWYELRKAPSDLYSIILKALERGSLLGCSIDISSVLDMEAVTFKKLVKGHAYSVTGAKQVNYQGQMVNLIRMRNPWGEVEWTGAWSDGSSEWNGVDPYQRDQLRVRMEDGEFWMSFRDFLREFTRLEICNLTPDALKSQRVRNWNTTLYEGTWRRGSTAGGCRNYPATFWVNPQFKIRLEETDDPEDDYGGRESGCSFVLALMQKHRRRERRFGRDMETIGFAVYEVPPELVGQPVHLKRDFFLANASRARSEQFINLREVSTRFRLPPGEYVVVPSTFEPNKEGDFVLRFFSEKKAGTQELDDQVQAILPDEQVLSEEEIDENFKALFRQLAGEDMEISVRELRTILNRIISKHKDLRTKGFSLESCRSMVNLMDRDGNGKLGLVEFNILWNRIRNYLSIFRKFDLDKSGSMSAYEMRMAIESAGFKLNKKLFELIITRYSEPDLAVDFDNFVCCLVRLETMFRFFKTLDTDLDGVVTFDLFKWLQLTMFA
Sequence (P04574 1-266): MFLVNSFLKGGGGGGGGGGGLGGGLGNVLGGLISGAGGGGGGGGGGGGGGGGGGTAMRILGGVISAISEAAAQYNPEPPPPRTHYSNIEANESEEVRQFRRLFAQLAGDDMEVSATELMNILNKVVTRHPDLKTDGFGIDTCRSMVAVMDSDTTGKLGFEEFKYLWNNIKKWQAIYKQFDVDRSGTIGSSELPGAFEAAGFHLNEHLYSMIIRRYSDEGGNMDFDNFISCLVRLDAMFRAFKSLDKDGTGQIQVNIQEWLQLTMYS
procedureSummary: FRET-based calpain-I inhibition assay in the presence and absence of 10 mM DTT
Format: biochemical, porcine
reportedConditions: disulfide prepared by iodine mediated oxidation and in situ prior to the assay; read-out: IC50 (dose response curve, Figure S8)
recordedMetric: IC50 (nM)
Give the value in nM but do not write nM after it.

Reported IC50 of O=C(O)/C(=C/c1c[nH]c2cc(Br)ccc12)SS/C(=C\c1c[nH]c2cc(Br)ccc12)C(=O)O : 200

====

systemTested: calpain-I (Sus scrofa, UniProt P35750)
Construct: purchased CalBiochem
Sequence (P35750 1-714): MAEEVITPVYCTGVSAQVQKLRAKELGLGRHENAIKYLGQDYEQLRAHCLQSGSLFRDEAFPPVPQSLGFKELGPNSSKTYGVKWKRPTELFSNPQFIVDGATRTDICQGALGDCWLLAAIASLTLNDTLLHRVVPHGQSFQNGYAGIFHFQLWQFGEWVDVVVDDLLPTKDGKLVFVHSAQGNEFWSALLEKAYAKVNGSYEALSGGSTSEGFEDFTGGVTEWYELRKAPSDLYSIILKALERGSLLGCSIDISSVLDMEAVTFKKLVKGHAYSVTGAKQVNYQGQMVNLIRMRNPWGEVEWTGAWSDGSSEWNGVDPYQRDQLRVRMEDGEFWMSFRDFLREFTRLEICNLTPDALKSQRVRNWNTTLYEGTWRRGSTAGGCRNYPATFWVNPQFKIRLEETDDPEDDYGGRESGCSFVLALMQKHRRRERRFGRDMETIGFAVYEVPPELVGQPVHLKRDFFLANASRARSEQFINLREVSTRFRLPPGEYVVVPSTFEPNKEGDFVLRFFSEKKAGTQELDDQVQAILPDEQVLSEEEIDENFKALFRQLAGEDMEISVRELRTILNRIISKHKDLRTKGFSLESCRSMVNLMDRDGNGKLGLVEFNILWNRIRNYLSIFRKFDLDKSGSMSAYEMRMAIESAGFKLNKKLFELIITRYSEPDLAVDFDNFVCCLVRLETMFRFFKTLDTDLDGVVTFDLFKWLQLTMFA
Sequence (P04574 1-266): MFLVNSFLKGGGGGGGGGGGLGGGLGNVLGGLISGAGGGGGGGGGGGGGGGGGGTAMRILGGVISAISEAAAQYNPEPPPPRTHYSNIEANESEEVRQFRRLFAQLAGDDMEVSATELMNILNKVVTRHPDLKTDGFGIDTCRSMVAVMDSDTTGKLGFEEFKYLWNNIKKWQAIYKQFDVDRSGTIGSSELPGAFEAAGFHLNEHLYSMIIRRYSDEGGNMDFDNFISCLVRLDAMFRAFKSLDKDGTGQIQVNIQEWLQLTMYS
procedureSummary: FRET-based calpain-I inhibition assay in the presence and absence of 10 mM DTT
Type: biochemical, porcine
reportedConditions: thioethers, 10 mM DTT; read-out: IC50 (DTT)
pIC50: −log10 of the molar value.
recordedMetric: pIC50

O=C(O)/C(=C/c1ccc(Br)cc1)CS/C(=C\c1c[nH]c2cc(Br)ccc12)C(=O)O    5.00
O=C(O)/C(=C/c1ccc(Br)cc1)CS/C(=C\c1ccc(Br)cc1)C(=O)O    5.00
